These data points were gathered from the supplement of paper PMC10567573.

B1: FCHO1 (parent)
chain: DKLALCHLELTRKLQDLIKDVLRY

# Variants of: B1
# TEST NAME: protein stability index of a GFP-peptide fusion (GPS, HEK-293T) (PSI 1-6); higher = more stable;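 further: lentivirally expressed fusions sorted by FACS into six bins by GFP to DsRed ratio, PSI derived from sequencing read proportions per bin multiplied by bin number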
# EXPERIMENTAL SETUP: c terminus: a fixed tail appended
REPORTED ENDPOINT: protein stability index
Just the number, please, no unit after it.

Entry D20P , protein stability index reported as 2.52

Documented protein stability index of D16F : 2.36

protein stability index for L14N is 2.33

response.value for K19N (field: protein stability index) = 2.69

protein stability index reported for this variant E9F : 2.62

The reported protein stability index of the variant K2H was 2.72

The measured protein stability index associated with D1S reads 2.45

Value of protein stability index reported for the variant Q15I is 3.87

So, E9S ? Its protein stability index was 1.77

In plain terms, V21R has a documented protein stability index of 2

Measured protein stability index, L14Y : 1.49

response.value for E9Q (field: protein stability index) = 3.2

The variant listed as K13V has a reported protein stability index of 3.38

In plain terms, D20W has a documented protein stability index of 2.4

protein stability index reading for H7C : 2.12

What the record says about K13Y : protein stability index is 2.74

Briefly, protein stability index measured for L3T : 1.81

Lookup result for T11E ; measured protein stability index: 1.27

// protein stability index value for Y24E : 3.6

protein stability index recorded for this variant, L5I , is 1.94

// field: protein stability index; key: V21N ; value = 2.02

protein stability index reading for D1T : 2.77

Field protein stability index (entry L17K ) reads 2.77

protein stability index recorded for this variant, L3S , is 1.79

protein stability index recorded for this variant, A4C , is 2.52

Notebook: K19Y , protein stability index read as 2.43

Query R23A yields protein stability index of 3.49

Form: variant = R23L ; protein stability index = 2.59

Measured protein stability index, T11D : 3.07

// protein stability index value for K19H : 2.18

Measured protein stability index, L5T : 1.72

The reported protein stability index of the variant D16W was 2.1

Consider L10H . Its measured protein stability index is 1.3

Sure, the documented protein stability index for R12V is 1.83

Lab note: E9V gave protein stability index of 4.2

protein stability index for L22Q is 2.92

// sample H7I , its protein stability index was 1.49

Reported protein stability index for L14R was 2.6

Reported protein stability index for D1P was 4.01

Summary for this variant, K13T : protein stability index is 3.29

Measured protein stability index, V21T : 2.53

response.value for K13P (field: protein stability index) = 2.54

Lab book: protein stability index of E9W noted as 2.73

Noted for L10F : its protein stability index reads 3.33

The variant listed as C6A shows protein stability index equal to 2.64

Measured protein stability index of Q15W : 2.34

The value of protein stability index measured for the variant K2Q turned out to be 2.45

Record I18G , field protein stability index: 2.33

The recorded protein stability index for D1N is 4.01

Noted for L17A : its protein stability index reads 1.42

Value of measured protein stability index for the entry L14E : 2.3

Entry L17H — recorded protein stability index = 2.06

response.value for H7M (field: protein stability index) = 2.67

# protein stability index of A4S = 1.81

# protein stability index of Q15N = 2.84

Record D16P . Reported protein stability index: 2.15

response.value for E9I (field: protein stability index) = 2.67

Per the record, K2P has protein stability index of 1.39

Per the record, K19S has protein stability index of 1.71

Lab note: measured protein stability index of L22M was 2.35

Input L5Y . Output protein stability index: 2.01

# protein stability index (variant: I18T ) is 2.02

get_value(item= E9P , readout=protein stability index) returns 3.31

Short answer for L5E : protein stability index was 1.62

The value of protein stability index measured for the variant T11S turned out to be 2.25

Per the records, this variant ( R12Q ) has protein stability index equal to 2.9

Reported protein stability index for D16V was 2.92

Given item A4W , the value recorded as its protein stability index is 3.22

Value of measured protein stability index for the entry L3N : 2.25

Lab note: L22D gave protein stability index of 2.32

Record K2E , field protein stability index: 2.28

Quick note, protein stability index for K19P landed at 2.36

In plain terms, V21F has a documented protein stability index of 2.25

The variant listed as L14W shows protein stability index equal to 1.53

Notebook: L14H , protein stability index read as 1.88

Record summary for E9G : reported protein stability index = 2.87

variant L17G , protein stability index observed: 3.64
